- target: T1, IL-18 receptors on HEK-Blue IL-18 reporter cells (UniProt Q13478 19-541; O95256 20-599, limits assumed); further: unit not given here
- T1 sequence (looked up) 1: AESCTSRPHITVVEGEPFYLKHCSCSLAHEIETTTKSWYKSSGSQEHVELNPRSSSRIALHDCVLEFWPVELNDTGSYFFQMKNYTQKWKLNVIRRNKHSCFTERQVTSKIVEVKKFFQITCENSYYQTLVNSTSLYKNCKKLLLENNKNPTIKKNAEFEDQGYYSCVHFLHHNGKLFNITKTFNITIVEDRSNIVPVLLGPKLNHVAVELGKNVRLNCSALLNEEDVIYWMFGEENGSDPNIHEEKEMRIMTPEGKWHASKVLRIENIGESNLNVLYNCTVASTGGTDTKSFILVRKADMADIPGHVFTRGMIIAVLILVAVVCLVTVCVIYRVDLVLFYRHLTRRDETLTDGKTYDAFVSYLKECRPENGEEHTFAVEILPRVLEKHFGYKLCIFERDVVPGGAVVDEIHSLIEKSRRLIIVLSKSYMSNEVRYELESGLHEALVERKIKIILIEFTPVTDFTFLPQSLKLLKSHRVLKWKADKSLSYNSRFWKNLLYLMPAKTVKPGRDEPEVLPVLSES
- T1 sequence (looked up) 2: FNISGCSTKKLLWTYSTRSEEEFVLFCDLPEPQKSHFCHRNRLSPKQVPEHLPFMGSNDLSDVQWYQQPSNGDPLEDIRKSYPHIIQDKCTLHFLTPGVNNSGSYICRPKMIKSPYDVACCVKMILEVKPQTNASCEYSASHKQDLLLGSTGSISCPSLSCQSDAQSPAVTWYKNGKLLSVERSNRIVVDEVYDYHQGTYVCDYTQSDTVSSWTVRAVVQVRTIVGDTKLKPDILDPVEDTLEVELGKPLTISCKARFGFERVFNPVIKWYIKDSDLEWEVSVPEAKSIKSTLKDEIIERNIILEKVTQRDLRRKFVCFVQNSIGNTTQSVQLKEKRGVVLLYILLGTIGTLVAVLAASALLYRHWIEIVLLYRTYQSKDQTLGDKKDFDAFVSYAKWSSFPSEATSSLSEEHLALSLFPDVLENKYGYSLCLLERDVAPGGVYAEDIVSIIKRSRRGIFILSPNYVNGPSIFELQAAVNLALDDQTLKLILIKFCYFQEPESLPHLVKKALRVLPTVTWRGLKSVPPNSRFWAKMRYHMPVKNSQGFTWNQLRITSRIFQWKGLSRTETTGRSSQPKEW
- assayNotes: cell-based or functional assay
metric: Activity, No BP, DF-500000

binder="IL-18 variant G3E, E6H, R27S, D54A, S55T, T63S, N91F, R104S (ligand) YFEKLHSKLSVIRNLNDQVLFIDQGNSPLFEDMTDSDMRDNAPRTIFIISMYKATQPRGMAVSISVKSEKISTLSSENKIISFKEMNPPDFIKDTKSDIIFFQSSVPGHDNKMQFESSSYEGYFLASEKERDLFKLILKKEDELGDRSIMFTVQNED" resultvalue=1.83
binder="IL-18 variant G3R, L5W, E6H, D54Y, Q56H, N91R (ligand) YFRKWHSKLSVIRNLNDQVLFIDQGNRPLFEDMTDSDMRDNAPRTIFIISMYKYSHPRGMAVTISVKSEKISTLSSENKIISFKEMNPPDRIKDTKSDIIFFQRSVPGHDNKMQFESSSYEGYFLASEKERDLFKLILKKEDELGDRSIMFTVQNED" resultvalue=0.12
binder="IL-18 variant G3Q, E6H, S7Y, D23A, R27S, D54S, S55R, T63F, N91F, R104Q (ligand) YFQKLHYKLSVIRNLNDQVLFIAQGNSPLFEDMTDSDMRDNAPRTIFIISMYKSRQPRGMAVFISVKSEKISTLSSENKIISFKEMNPPDFIKDTKSDIIFFQQSVPGHDNKMQFESSSYEGYFLASEKERDLFKLILKKEDELGDRSIMFTVQNED" resultvalue=0.08
binder="IL-18 variant G3Y, E6N, N91Y, R104S (ligand) YFYKLNSKLSVIRNLNDQVLFIDQGNRPLFEDMTDSDMRDNAPRTIFIISMYKDSQPRGMAVTISVKSEKISTLSSENKIISFKEMNPPDYIKDTKSDIIFFQSSVPGHDNKMQFESSSYEGYFLASEKERDLFKLILKKEDELGDRSIMFTVQNED" resultvalue=1.79
binder="IL-18 variant G3P, E6H, D54A, S55P, Q56K, T63S, N91M (ligand) YFPKLHSKLSVIRNLNDQVLFIDQGNRPLFEDMTDSDMRDNAPRTIFIISMYKAPKPRGMAVSISVKSEKISTLSSENKIISFKEMNPPDMIKDTKSDIIFFQRSVPGHDNKMQFESSSYEGYFLASEKERDLFKLILKKEDELGDRSIMFTVQNED" resultvalue=0.63
binder="IL-18 variant G3L, E6N, I22M, T63V, N91T, R104P (ligand) YFLKLNSKLSVIRNLNDQVLFMDQGNRPLFEDMTDSDMRDNAPRTIFIISMYKDSQPRGMAVVISVKSEKISTLSSENKIISFKEMNPPDTIKDTKSDIIFFQPSVPGHDNKMQFESSSYEGYFLASEKERDLFKLILKKEDELGDRSIMFTVQNED" resultvalue=0.07
binder="IL-18 variant G3E, E6G, N91M, R104A (ligand) YFEKLGSKLSVIRNLNDQVLFIDQGNRPLFEDMTDSDMRDNAPRTIFIISMYKDSQPRGMAVTISVKSEKISTLSSENKIISFKEMNPPDMIKDTKSDIIFFQASVPGHDNKMQFESSSYEGYFLASEKERDLFKLILKKEDELGDRSIMFTVQNED" resultvalue=2
